- ASSAY_PROTOCOL: Depth of Migration (DM) test
- Type: physicochemical
- ASSAY_CONDITIONS: 1:100 dilution in DM dye solution, 30 μL, 15° platform, after 30-120 seconds; table value
# DM Distance Traveled listing for each entry below
Give the value in cm but do not write cm after it.

Worked cases, answers included:
COMPOUND: CC(C)O [Isopropanol]
MEASURED_NUMBER: 4.5
--
COMPOUND: COC(=O)CC#N [Methyl cyanoacetate]
MEASURED_NUMBER: 4.5
--
COMPOUND: CCOC(=O)CC(=O)c1cc(F)c(Cl)nc1Cl
MEASURED_NUMBER: 4.5
--
COMPOUND: CCCCOc1ccc(OCCCC)cc1 [1,4-dibutoxy benzene]
MEASURED_NUMBER: 4.5

Q) // DM Distance Traveled lookup, key: CCO [Ethanol]
A) 4.5

Q) // DM Distance Traveled lookup, key: CCCCCCCCCCCCCCO [Myristyl alcohol]
A) 4.5
